biological target: LmLuc (Luciola mingrelica luciferase) (Luciola mingrelica); assay: luminescence inhibition, 1536-well CRC; format: biochemical; conditions: read-out: LmLuc; 10 μM D-luciferin and ATP; 5 nM enzyme
Sequence (Q26304 whole entry): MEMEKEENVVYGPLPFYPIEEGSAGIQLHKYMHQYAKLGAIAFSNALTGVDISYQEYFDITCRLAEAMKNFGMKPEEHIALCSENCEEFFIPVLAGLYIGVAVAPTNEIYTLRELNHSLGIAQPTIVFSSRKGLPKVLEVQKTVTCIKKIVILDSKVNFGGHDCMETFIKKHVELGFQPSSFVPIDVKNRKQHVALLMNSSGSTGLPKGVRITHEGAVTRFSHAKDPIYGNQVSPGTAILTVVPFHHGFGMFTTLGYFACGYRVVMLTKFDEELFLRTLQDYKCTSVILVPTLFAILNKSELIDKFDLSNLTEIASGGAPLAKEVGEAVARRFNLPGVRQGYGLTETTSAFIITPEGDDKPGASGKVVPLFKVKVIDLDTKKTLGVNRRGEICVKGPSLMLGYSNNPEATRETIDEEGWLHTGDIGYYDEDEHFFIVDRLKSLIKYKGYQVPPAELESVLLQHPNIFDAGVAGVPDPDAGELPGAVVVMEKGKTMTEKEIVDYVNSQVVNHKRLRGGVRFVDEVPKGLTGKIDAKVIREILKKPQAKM
METRIC NAME: IC50 (nM)
Give just the number in nM; leave the unit off.

[Q] What IC50 value was documented for this compound, CC(C)(O)[C@H]1Cc2cc(/C=C3\OC(=O)C(c4ccc5c(c4)C[C@H](C(C)(C)O)O5)=C3O)ccc2O1 [compound 5, aspulvinone J-CR] ?
[A] 100
